Give measured pEC50 for each item. Keep answers brief.
Molecular target: T1, human ErbB3-Fc (R&D Systems) (human, UniProt P21860 20-643)
T1 construct: Bought protein; also called wild-type ErbB3-Fc fusion; immobilized ErbB3; not shown: Fc part of the bought fusion protein; not described
Experiment: ELISA on ErbB3-Fc, soluble monovalent Sab (Example 42)
Answers are plain numbers, as −log10 of the molar value.

2995-A05 (other) VH: EVQLLESGGGLVQPGGSLRLSCAASGFTFSNYWMHWVRQAPGKGLEWVAAISNGSSYTYYADSVKGRFTISRDNSKNTLYLQMNSLRAEDTAVYYCAKDNFILLNSWFDYWGQGTLVTVSS light: QPVLHQPPAMSSALGTTIRLTCTLRNDHDIGVYSVYWYQQRPGHPPRFLLRYFSQSDKSQGPQVPPRFSGSKDVARNRGYLSISELQPEDEAMYYCAMGARSSVTHVFGSGTQLTVLSQPKATPSVTLFPPSSEELQANKATLVCLMNDFYPGILTVTWKADGTPITQGVEMTTPSKQSNNKYAASSYLSLTPEQWRSRRSYSCQVMHEGSTVEKTVAPAECS; 10.66

**Q:** Identify pEC50 associated with the binder 2995-B01 (other) VH: EVQLLESGGGLVQPGGSLRLSCAASGFTFSDYAMHWVRQAPGKGLEWVALISSGGRYKYYADSVKGRFTISRDNSKNTLYLQMNSLRAEDTAVYYCAKDNFILLNSWFDYWGQGTLVTVSS light: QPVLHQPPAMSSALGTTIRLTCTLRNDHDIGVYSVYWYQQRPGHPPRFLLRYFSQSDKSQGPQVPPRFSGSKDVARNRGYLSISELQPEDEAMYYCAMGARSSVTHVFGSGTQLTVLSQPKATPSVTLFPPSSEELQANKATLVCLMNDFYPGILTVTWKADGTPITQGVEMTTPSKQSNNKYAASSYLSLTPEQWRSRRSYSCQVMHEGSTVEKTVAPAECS
**A:** 10.34
